These data points were gathered from the supplement of paper PMC10567573.

B1: STX5 (parent)
chain: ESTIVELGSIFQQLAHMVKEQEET

Variants of: B1
assay-explanation: protein stability index of a GFP-peptide fusion (GPS, HEK-293T) (PSI 1-6); higher = more stable;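 note: lentivirally expressed fusions sorted by FACS into six bins by GFP to DsRed ratio, PSI derived from sequencing read proportions per bin multiplied by bin number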
study-conditions: c terminus: a fixed tail appended
# if value of protein stability index reaches 3, tag label 1; if it stays below, tag label 0

Look over these answered cases.
> print(dat)
    mutant.name  group.label
 1          S2L      label 0
 2          S9A      label 0
 3         E23K      label 0
 4         T24S      label 0
 5         F11G      label 1
 6         V18S      label 1
 7         E23A      label 0
 8         L14R      label 1
 9          T3M      label 0
10          L7T      label 1

Check this variant for protein stability index at or above 3: Q13N
label 0

Check this variant for protein stability index at or above 3: L14I
label 0

Check this variant for protein stability index at or above 3: I4K
label 0

Check this variant for protein stability index at or above 3: V18C
label 0
